- TESTED_TARGET: NA (H5N1) (Influenza A virus)
- MEASUREMENT_PROTOCOL: biochemical
- CONDITION_LABEL: read-out: Inhibition rate (%) NA (H5N1)
MEASURED_METRIC: inhibition at 200 µM (%)
I only need the number, in %, no unit after it.

# input molecule: C/C(=C\C(=O)CC(C)C(=O)O)[C@H]1C[C@H](O)[C@@]2(C)C3=C(C(=O)C[C@]12C)[C@@]1(C)CCC(=O)C(C)(C)[C@@H]1C[C@@H]3O (stereo partly drawn) [Compound 8, Ganoderenic acid A] ; wanted: its inhibition at 200 µM
35.9

# input molecule: C/C(=C/CC[C@@H](C)[C@H]1CC[C@@]2(C)C3=CC[C@H]4C(C)(C)C(=O)CC[C@]4(C)C3=CC[C@]12C)C(=O)O [Compound 5, Ganoderic acid S] ; wanted: its inhibition at 200 µM
86.7

====

Measured inhibition at 200 µM by item
- TESTED_TARGET: NA (H5N1) (Influenza A virus)
- MEASUREMENT_PROTOCOL: biochemical
- CONDITION_LABEL: read-out: Inhibition rate (%) NA (H5N1)
I only need the number, in %, no unit after it.

{"MOLECULE": "CC(CC(=O)C[C@@H](C)[C@H]1CC(=O)[C@@]2(C)C3=C(C(=O)C[C@]12C)[C@@]1(C)CC[C@H](O)C(C)(C)[C@@H]1C[C@@H]3O)C(=O)O (stereo partly drawn) [Compound 14, Ganoderic acid B]", "inhibition at 200 µM [%]": 3}
{"MOLECULE": "C[C@H](CCC=C(CO)CO)[C@H]1CC[C@@]2(C)C3=CC[C@H]4C(C)(C)C(=O)CC[C@]4(C)C3=CC[C@]12C [Compound 27, Ganoderiol F]", "inhibition at 200 µM [%]": 33.6}

Find the measured inhibition at 200 µM: item CC(CC(=O)C[C@@H](C)[C@H]1C[C@H](O)[C@@]2(C)C3=C(C(=O)C[C@]12C)[C@@]1(C)CCC(=O)C(C)(C)[C@@H]1CC3)C(=O)O (stereo partly drawn) [Compound 21, Ganolucidic acid A] , target or system NA (H5N1) (Influenza A virus).
49.8

====

The reader will find CC50 measurements below, all made with MCF7 cells.
I only need the number, in µM, no unit after it.

Below: 2 compounds and their reported CC50.
{"MOL": "CC(=O)O[C@H]1C[C@H]([C@H](C)CC/C=C(\\C)C(=O)O)[C@@]2(C)CC=C3C(=CC[C@H]4C(C)(C)C(=O)CC[C@]34C)[C@]12C", "MEASURE_UNIT": "µM", "OBSERVED_VALUE": 28.2}
{"MOL": "C/C(C=O)=C\\CC[C@@H](C)[C@H]1CC[C@@]2(C)C3=CC[C@H]4C(C)(C)[C@@H](O)CC[C@]4(C)C3=CC[C@]12C", "MEASURE_UNIT": "µM", "OBSERVED_VALUE": 34.7}

Find the measured CC50: item C/C(=C/CC[C@@H](C)[C@H]1CC[C@@]2(C)C3=CC[C@H]4C(C)(C)C(=O)CC[C@]4(C)C3=CC[C@]12C)C(=O)O , target or system MCF7 cells.
50.6

Find the measured CC50: item CC(=O)O[C@H]1C[C@H]([C@H](C)CC/C=C(\C)C(=O)O)[C@@]2(C)CC=C3C(=CC[C@H]4C(C)(C)[C@@H](O)CC[C@]34C)[C@]12C , target or system MCF7 cells.
24.4
